The reported measurements were obtained from patent US20240270715A1.

- tested_on: recombinant human transglutaminase 2 (Homo sapiens, UniProt P21980)
- Sequence (P21980 whole entry): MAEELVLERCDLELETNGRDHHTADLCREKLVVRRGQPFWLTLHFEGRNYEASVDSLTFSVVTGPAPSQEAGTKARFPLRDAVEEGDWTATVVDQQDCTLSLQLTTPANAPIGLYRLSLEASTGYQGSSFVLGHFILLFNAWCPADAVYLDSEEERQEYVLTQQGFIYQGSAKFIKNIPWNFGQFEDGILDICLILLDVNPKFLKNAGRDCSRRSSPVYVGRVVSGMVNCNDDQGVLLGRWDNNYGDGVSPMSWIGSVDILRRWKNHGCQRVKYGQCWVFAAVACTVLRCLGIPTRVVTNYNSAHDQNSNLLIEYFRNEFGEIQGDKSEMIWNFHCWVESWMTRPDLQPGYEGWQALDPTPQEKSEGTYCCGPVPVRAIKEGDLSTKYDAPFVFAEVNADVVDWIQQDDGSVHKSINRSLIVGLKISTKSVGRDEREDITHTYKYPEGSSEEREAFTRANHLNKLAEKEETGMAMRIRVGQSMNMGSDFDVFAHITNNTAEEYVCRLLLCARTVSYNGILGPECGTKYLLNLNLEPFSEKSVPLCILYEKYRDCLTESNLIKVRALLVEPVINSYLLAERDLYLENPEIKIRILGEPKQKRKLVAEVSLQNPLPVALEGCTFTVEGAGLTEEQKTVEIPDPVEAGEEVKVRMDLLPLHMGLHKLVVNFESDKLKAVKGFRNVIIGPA
- procedure_details: Transglutaminase assay: incorporation of dansylcadaverine into dimethylcasein (DCC-assay)
- Assay type: biochemical
- experimental_conditions: recombinant human TG2 10 nM, dansylcadaverine/dimethylcasein; read-out: IC50 TG2
measure_name: IC50

Bench note: what IC50 did CCNC(=O)C(=O)CC[C@H](NC(=O)c1c(C)noc1C)C(=O)Nc1cccn(CC(=O)NC2C3CCCC2CC3)c1=O (stereo partly drawn) show?
150 to 600 nM

Consider the compound shown here: "CCNC(=O)C(=O)CC[C@H](NC(=O)c1cncn1C)C(=O)Nc1cccn(CC(=O)NC23CC4CC(C2)CC(C(=O)OC)(C4)C3)c1=O" What is its recorded IC50?
150 to 600 nM

Now consider the entry below.
I am curious: what IC50 value has been reported for "CCNC(=O)C(=O)CC[C@H](NC(=O)c1cn(C)cn1)C(=O)Nc1cccn(CC(=O)NC23CC4CC(CC(CC)(C4)C2)C3)c1=O" ?
600 to 3500 nM

* * *

- procedure_details: Log D by shake flask method (octanol / PBS pH 7.4, HPLC)
- Type: physicochemical
- experimental_conditions: octanol / PBS pH 7.4, shake flask; read-out: logD
measure_name: logD

In the examples that follow, each entry is paired with its recorded logD.
Entry CCNC(=O)C(=O)CC[C@H](NC(=O)c1sc(C(F)(F)F)nc1C)C(=O)Nc1cccn(CC(=O)NC2C3CC4CC(C3)CC2C4)c1=O (stereo partly shown) has what logD?
1 to 3

Please look up its logD: "CCNC(=O)C(=O)CC[C@H](NC(=O)c1cncn1C)C(=O)Nc1cccn(CC(=O)N(C)C23CC4CC(CC(C4)C2)C3)c1=O"
1 to 3

I have this molecule here, "CCNC(=O)C(=O)CC[C@H](NC(=O)c1cnc(C)n1C)C(=O)Nc1cccn(CC(=O)NC23CC4CC(CC(C)(C4)C2)C3)c1=O" , and I need its recorded logD.
1 to 3

Data request, read-out logD, for CCNC(=O)C(=O)CC[C@H](NC(=O)c1sc(Br)cc1Br)C(=O)Nc1cccn(CC(=O)NC2C3CC4CC(C3)CC2C4)c1=O (stereo partly shown)
3 to 5

Query: logD; subject: CCNC(=O)C(=O)CC[C@H](NC(=O)c1cnccn1)C(=O)Nc1cccn(CC(=O)NC2C3CC4CC2CC(O)(C4)C3)c1=O (stereo partly shown)
< 1

More entries:
Record request: logD value, item "CCNC(=O)C(=O)CC[C@H](NC(=O)c1noc(C)n1)C(=O)Nc1cccn(CC(=O)NC23CC(C2)C3)c1=O"
< 1

# get_value(readout='logD', item= "CCNC(=O)C(=O)CC[C@H](NC(=O)c1cc2ccccc2nn1)C(=O)Nc1cccn(CC(=O)NC23CC(C2)C3)c1=O" )
< 1

Fill blank: measured logD of the molecule "CCNC(=O)C(=O)CC[C@H](NC(=O)c1nccc2cnccc12)C(=O)Nc1cccn(CC(=O)NC23CCC(C2)C3)c1=O" is ____.
< 1

Quick one: logD for CCNC(=O)C(=O)CC[C@H](NC(=O)c1cncnc1C)C(=O)Nc1cccn(CC(=O)NC2C3CC4CC2CC(C(=O)O)(C4)C3)c1=O (stereo partly shown) ?
< 1

* * *

- procedure_details: Log D by shake flask method (octanol / PBS pH 7.4, HPLC)
- Assay type: physicochemical
- experimental_conditions: octanol / PBS pH 7.4, shake flask; read-out: logD
measure_name: logD

Which logD value is on record for "CCNC(=O)C(=O)CC[C@H](NC(=O)c1cn(CC(C)C)cn1)C(=O)Nc1cccn(CC(=O)NC23CC4CC(CC(CC)(C4)C2)C3)c1=O" ?
3 to 5

Tell me the measured logD of CCNC(=O)C(=O)CC[C@H](NC(=O)C1Cc2ccccc2C1)C(=O)Nc1cccn(CC(=O)NC2C3CC4CC(C3)CC2C4)c1=O (stereo partly drawn) , please.
3 to 5

Which value of logD has been reported for "CCNC(=O)C(=O)CC[C@H](NC(=O)c1coc(C(C)=O)n1)C(=O)Nc1cccn(CC(=O)NC23CC(C2)C3)c1=O" in the records?
< 1

I'd like to know its logD. The compound in question is "CCNC(=O)C(=O)CC[C@H](NC(=O)c1cnsn1)C(=O)Nc1cccn(CC23CC4CC(CC(Br)(C4)C2)C3)c1=O"
3 to 5

Next:
# logD lookup, item CCNC(=O)C(=O)CC[C@H](NC(=O)c1ccnnc1)C(=O)Nc1cccn(CC(=O)NC2C3CCC2CC3)c1=O (stereo partly drawn)
< 1

Quick check: logD of CCNC(=O)C(=O)CC[C@H](NC(=O)c1cc(Cl)sc1Cl)C(=O)Nc1cccn(CC(=O)NC2C3CC4CC(C3)CC2C4)c1=O (stereo partly drawn) ?
3 to 5
